Biological target: IKK2 (Homo sapiens)
Construct: made in house; host or cells: insect cells (baculovirus, pFastBac; SF9)
Assay: IKKβ Resin Enzyme Assay (IKK2 resin)
Assay type: biochemical
Conditions: Table 1; read-out: IKK2-resin
measuredParameter: IC50

Exercise: Name the recorded IC50 of the compound listed here: CN(C)S(=O)(=O)c1ccc(-n2nc(C(N)=O)c3c2-c2cc(NC(=O)c4ccccc4Cl)ccc2CC3)cc1
Key: ≤ 1 µM

----------
Target: IKK2 (Homo sapiens, UniProt O14920)
Construct: made in house; host or cells: insect cells (baculovirus, pFastBac; SF9)
Sequence (O14920 1-756): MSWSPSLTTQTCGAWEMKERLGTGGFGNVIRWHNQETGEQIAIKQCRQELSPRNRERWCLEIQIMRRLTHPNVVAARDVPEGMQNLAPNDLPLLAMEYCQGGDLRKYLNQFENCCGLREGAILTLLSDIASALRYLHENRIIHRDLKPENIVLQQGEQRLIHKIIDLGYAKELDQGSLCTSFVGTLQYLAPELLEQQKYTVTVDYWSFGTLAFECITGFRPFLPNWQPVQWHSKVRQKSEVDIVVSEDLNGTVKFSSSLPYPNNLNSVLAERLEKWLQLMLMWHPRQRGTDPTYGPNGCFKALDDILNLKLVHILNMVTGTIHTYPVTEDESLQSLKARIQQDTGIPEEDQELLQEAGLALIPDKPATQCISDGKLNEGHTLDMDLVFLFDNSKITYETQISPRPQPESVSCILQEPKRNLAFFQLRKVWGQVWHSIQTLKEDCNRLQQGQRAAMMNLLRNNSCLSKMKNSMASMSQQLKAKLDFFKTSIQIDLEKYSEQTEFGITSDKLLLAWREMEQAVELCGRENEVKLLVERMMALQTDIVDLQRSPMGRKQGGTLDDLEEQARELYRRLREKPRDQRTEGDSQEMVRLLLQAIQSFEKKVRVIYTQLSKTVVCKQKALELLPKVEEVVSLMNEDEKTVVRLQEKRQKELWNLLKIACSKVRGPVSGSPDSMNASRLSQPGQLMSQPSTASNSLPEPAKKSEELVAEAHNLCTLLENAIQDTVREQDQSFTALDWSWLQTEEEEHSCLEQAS
Assay: IKKβ Resin Enzyme Assay (IKK2 resin)
Assay type: biochemical
Conditions: Table 6; read-out: IKK2 Resin IC 50
Protocol: cDNAs of human IKK1 and IKK2 were amplified by reverse transcriptase-polymerase chain reaction from human placental RNA (Clonetech). hIKK1 was subcloned into pFastBac HTa (Life Technologies) and expressed as N-terminal His6-tagged fusion protein. […] IKKβ kinase activity was measured using a biotinylated IκBα peptide ([…]32-Gly-Leu-Asp-Ser36-Met-Lys-Asp-Glu-Glu) (American Peptide Co.). […] ATP was measured using a Top-Count NXT (Packard).
pIC50: −log10 of the molar value.
measuredParameter: pIC50

Solved cases below.
NC(=O)c1nn(-c2ccc(F)cc2)c2c1CCc1ccc(NC(=O)c3cccc(Cl)c3Cl)cc1-2 :: ≥ 6.00
CSc1ccc(Cl)c(C(=O)Nc2ccc3c(c2)-c2c(c(C(N)=O)nn2-c2ccc(F)cc2)CC3)c1 :: ≥ 6.00
Cc1ccccc1C(=O)Nc1ccc2c(c1)-c1c(c(C(N)=O)nn1-c1ccc(F)cc1)CC2 :: ≥ 6.00
NC(=O)c1nn(-c2ccc(F)cc2)c2c1CCc1ccc(NC(=O)c3cccc([N+](=O)[O-])c3Cl)cc1-2 :: ≥ 6.00
NC(=O)c1nn(-c2ccc(F)cc2)c2c1CCc1ccc(NC(=O)c3ccccc3Cl)cc1-2 :: ≥ 6.00

Exercise: Tell me pIC50 reported for NC(=O)c1nn(-c2ccc(F)cc2)c2c1CCc1ccc(NC(=O)c3cc(Cl)cnc3Cl)cc1-2
Key: ≥ 6.00

Exercise: Return pIC50 (reported value) for this compound: NC(=O)c1nn(-c2ccc(F)cc2)c2c1CCc1ccc(NC(=O)c3ccc(N)cc3Cl)cc1-2
Key: ≥ 6.00

----------
Recorded IC50, one value per entry.
Target: IKK2 (Homo sapiens)
Construct: made in house; host or cells: insect cells (baculovirus, pFastBac; SF9)
Test: IKKβ Resin Enzyme Assay (IKK2 resin)
Type: biochemical
Details: Table 21; read-out: IKK2 Resin IC50

Solved entries:
CN(C)S(=O)(=O)c1ccc(-n2nc(C(N)=O)c3c2-c2cc(NS(C)(=O)=O)ccc2CC3)cc1 :: ≤ 1 µM
CN(C)S(=O)(=O)c1ccc(-n2nc(C(N)=O)c3c2-c2cc(NC(=O)c4ccccc4Cl)ccc2CC3)cc1 :: ≤ 1 µM

Exercise: State measured IC50 of the molecule C#CCN(CC#C)S(=O)(=O)c1ccc(-n2nc(C(N)=O)c3c2-c2cc(N)ccc2CC3)cc1 with IKK2 (Homo sapiens).
Key: ≤ 1 µM

----------
Target: IKK2 (Homo sapiens, UniProt O14920)
Construct: made in house; host or cells: insect cells (baculovirus, pFastBac; SF9)
Assay: IKKβ Resin Enzyme Assay (IKK2 resin)
Format: biochemical
Conditions: Table 15; read-out: IKK2 Resin IC50
pIC50: −log10 of the molar value. Where a name gives a salt, the structure may show the parent alone.
measuredParameter: pIC50

Exercise: Given CN(C)CCNC(=O)c1ccc(-n2nc(C(N)=O)c3c2-c2cc(NC(=O)c4ccccc4Cl)ccc2CC3)cc1 [Example 380, hydrochloride] , respond with its pIC50.
Key: 5.00 to 6.00

Exercise: Give me measured pIC50, please, for this compound: CS(=O)(=O)Nc1ccc(-n2nc(C(N)=O)c3c2-c2cc(NC(=O)c4ccccc4Cl)ccc2CC3)cc1
Key: ≥ 6.00

Exercise: Using known records, supply pIC50 for COCC(=O)Nc1ccc(-n2nc(C(N)=O)c3c2-c2cc(NC(=O)c4ccccc4Cl)ccc2CC3)cc1
Key: ≥ 6.00

Exercise: Entry CC(=O)Nc1ccc(-n2nc(C(N)=O)c3c2-c2cc(NC(=O)c4ccccc4Cl)ccc2CC3)cc1 needs its pIC50 filled in; supply it.
Key: ≥ 6.00

Exercise: Look up and state reported pIC50 for NC(=O)c1nn(-c2cccc(N)c2)c2c1CCc1ccc(NC(=O)c3ccccc3Cl)cc1-2
Key: ≥ 6.00

Exercise: For the compound NC(=O)c1nn(-c2ccc(N)cc2)c2c1CCc1ccc(NC(=O)c3ccccc3Cl)cc1-2 , give its measured pIC50 value.
Key: ≥ 6.00

----------
Each entry below carries its reported IC50.
Target: IKK2 (Homo sapiens, UniProt O14920)
Construct: made in house; host or cells: insect cells (baculovirus, pFastBac; SF9)
Test: IKKβ Resin Enzyme Assay (IKK2 resin)
Type: biochemical
Settings: Table for Examples 381-385 (headed TABLE 14); read-out: IKK2 Resin IC50

Example compounds with recorded IC50:
NC(=O)c1nn(-c2cccs2)c2c1CCc1ccc(NC(=O)c3ccncc3Cl)cc1-2 :: ≤ 1000 nM
NC(=O)c1nn(-c2ccsc2)c2c1CCc1ccc(NC(=O)c3ccncc3Cl)cc1-2 :: ≤ 1000 nM

The record that follows has no IC50 shown yet.
Exercise: Give recorded IC50. NC(=O)c1nn(-c2ccc(N)nc2)c2c1CCc1ccc(NC(=O)c3ccncc3Cl)cc1-2
Key: ≤ 1000 nM

----------
Molecular target: IKK2 (Homo sapiens, UniProt O14920)
Construct: made in house; host or cells: insect cells (baculovirus, pFastBac; SF9)
Sequence (O14920 1-756): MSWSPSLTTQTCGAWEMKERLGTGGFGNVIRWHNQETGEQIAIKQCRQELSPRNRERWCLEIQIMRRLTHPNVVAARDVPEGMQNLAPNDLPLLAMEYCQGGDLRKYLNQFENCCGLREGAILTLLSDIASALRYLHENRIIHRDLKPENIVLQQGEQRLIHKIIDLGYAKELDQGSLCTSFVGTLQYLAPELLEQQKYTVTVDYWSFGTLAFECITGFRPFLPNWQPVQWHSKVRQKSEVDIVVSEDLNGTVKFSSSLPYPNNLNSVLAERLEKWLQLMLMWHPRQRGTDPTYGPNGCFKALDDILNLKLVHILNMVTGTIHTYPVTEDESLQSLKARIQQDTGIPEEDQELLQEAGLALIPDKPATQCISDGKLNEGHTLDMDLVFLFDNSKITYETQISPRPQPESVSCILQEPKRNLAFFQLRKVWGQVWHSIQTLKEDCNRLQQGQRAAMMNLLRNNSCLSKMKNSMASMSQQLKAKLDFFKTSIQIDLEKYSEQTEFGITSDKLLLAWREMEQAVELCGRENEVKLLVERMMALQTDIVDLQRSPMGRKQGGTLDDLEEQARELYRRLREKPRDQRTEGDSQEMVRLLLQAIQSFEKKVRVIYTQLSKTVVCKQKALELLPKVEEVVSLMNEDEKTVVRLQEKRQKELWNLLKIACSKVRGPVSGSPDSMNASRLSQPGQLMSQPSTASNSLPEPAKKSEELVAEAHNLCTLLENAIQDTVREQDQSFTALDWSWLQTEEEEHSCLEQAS
Experiment: IKKβ Resin Enzyme Assay (IKK2 resin)
Type: biochemical
Details: Table 8; read-out: IKK2 Resin IC50
pIC50: −log10 of the molar value.
Readings of pIC50 for the listed molecules

NC(=O)c1nn(-c2ccc(O)cc2)c2c1CCc1ccc(NC(=O)c3ccccc3Cl)cc1-2 [Example 261] :: ≥ 6.00
NC(=O)c1nn(-c2ccc(O)cc2)c2c1CCc1ccc(NC(=O)c3cccnc3Cl)cc1-2 [Example 263] :: ≥ 6.00

Exercise: Using known records, supply pIC50 for NC(=O)c1nn(-c2cccc(O)c2)c2c1CCc1ccc(NC(=O)c3ccccc3Cl)cc1-2 [Example 262]
Key: ≥ 6.00

Exercise: Please give the documented pIC50 of NC(=O)c1nn(-c2ccc(OCc3ccccc3)cc2)c2c1CCc1ccc(NC(=O)c3ccccc3Cl)cc1-2 [Example 259]
Key: < 5.00

Measured values drawn from patent US7186743B2 for this set.
